TEST METHOD NOTES: qHTS assay to identify small molecule antagonists of the estrogen related receptor signaling pathway with the pleiotropic PPARgamma coactivator (PGC) from Tox21 10K library - cell viability counter screen (AID 1224840); also: % is scaled to controls: 0 for no effect and ±100 for the full control effect; nearly all actives have a fitted effect of over 40% in size
CONDITION DETAILS: PGC/ERR reporter cells viability, CellTiter-Fluor, 17.5 h; series mostly up to 92.4 µM
Experimental: National Center for Advancing Translational Sciences [NCATS] NIH Chemical Genomics Center [NCGC] U.S. Environmental Protection Agency [EPA] National Institutes of Environmental Health Sciences [NIEHS] National Toxicology Program [NTP] […] The PGC/ERR cells were dispensed at 2,000 cells/5 ul/well in 1536-well white plates using a Multidrop dispenser. […] After 30-minute incubation at 37 C/5% CO2, the fluorescence intensity in the plates was measured using a ViewLux plate reader.
Inconclusive results are not listed. The source made the active and inactive calls. Calls follow the shape of the dose curve; as a rule, active = well fitted cell-killing curve with a large enough effect in the repeat runs (not every such curve was filed as active); inconclusive = weak or mixed curves, or effect the other way; inactive = no such curve, though single readings can be large or run the other way. Where a SMILES comes first, the peptide text is derived from it.
ENDPOINT: viability change, negative = cytotoxic

For orientation, consider the following solved cases.
CN(C)CCOC(=O)C(c1ccccc1)C1(O)CCCC1 (configuration not stated) = inactive
COP(=O)(O)OP(=O)(O)OC = inactive
CCCCC1CCC(O)CC1 (configuration not stated) = inactive
CCCCCCCCCCCCCCCCCC#N = inactive
CN1C[C@@H]2C[C@H]1CN2c1cc2c(cc1F)c(=O)c(C(=O)O)cn2C1CC1 = 6.5% [at 19 µM] (inactive)
CC(C)CCOC(=O)c1ccccc1 = inactive
CCC(C(=O)OCCN1CCOC(c2ccccc2)C1C)c1ccccc1 (configuration not stated) = inactive
CC(=O)O[Si](C)(OC(C)=O)OC(C)=O = inactive

For each entry beneath this line, provide reported viability change, negative = cytotoxic.
1. OCC1CCC(CO)CC1 (configuration not stated)
2. COC(=O)c1cccc(Cl)c1
3. CC(=O)N[C@@H](CO)C(=O)N[C@@H](CC(=O)O)C(=O)N[C@@H](CCCCN)C(=O)N1CCC[C@H]1C(=O)O (Ac-SDKP-OH)
4. CC1(C)Oc2ccc(C#N)cc2[C@@H](N2CCCC2=O)[C@@H]1O

["inactive", "inactive", "inactive", "inactive"]

---

TEST METHOD NOTES: qHTS assay to identify small molecule HDAC inhibitors (AID 1259364);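 also: wild-type HCT-116 cells with endogenous class I/II HDAC activity; nearly all actives have a fitted effect of over 45% in size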
CONDITION DETAILS: HCT-116 HDAC-Glo I/II luminescence, 2 h; series mostly up to 92.4 µM
Records with an inconclusive call do not appear. Active and inactive are the calls of the source. Calls follow the shape of the dose curve; as a rule, active = well fitted inhibition curve with a large enough effect in the repeat runs; inconclusive = weak or mixed curves; inactive = flat fitted curve, though single readings scatter.
Your answer must be one of the following: yes (1) for active, no (0) for inactive

O=C(O)CCCCCC(=O)O = no (0)
CC(O)CC(C)O (configuration not stated) = no (0)
CC1=NN(c2ccc(S(=O)(=O)O)cc2)C(=O)C1 = no (0)
CC(=O)OCC(=O)Nc1cc(C#N)cc(NC(=O)COC(C)=O)c1Cl = no (0)

Which outcome was assigned to OCC1CCC(CO)CC1 (configuration not stated) in this test?
no (0)

Which outcome was assigned to C/C=C(\C)C(=O)OCCc1ccccc1 in this test?
yes (1)

Which outcome was assigned to C=C(C)c1cccc(C(C)(C)N=C=O)c1 in this test?
no (0)

Which outcome was assigned to CCCCCC(C)O (configuration not stated) in this test?
no (0)

Which outcome was assigned to Cc1cccc(Cl)c1 in this test?
no (0)

Which outcome was assigned to COc1ccc(CCO)cc1 in this test?
no (0)

---

TEST METHOD NOTES: A CellTox Green Cytotoxicity Assay to monitor cytotoxicity in HepG2 cells - 40 hour (AID 1224879); also: % is scaled to controls: 0 for no effect and ±100 for the full control effect; nearly all actives have a fitted effect of over 40% in size
CONDITION DETAILS: CellTox Green fluorescence; series mostly up to 76.8 µM
Inconclusive results are not listed. Calls of active or inactive are those of the source. Calls come from the whole dose curve; as a rule, active = well fitted activation curve with a large enough effect in the repeat runs; inconclusive = weak or mixed curves; inactive = flat fitted curve, though single readings scatter.
ENDPOINT: cytotoxicity increase

For orientation, consider the following solved cases.
COP(=O)(O)OP(=O)(O)OC = inactive
CC(=O)CCc1ccc(OC(C)=O)cc1 = inactive
O=C(Cl)c1ccccc1[N+](=O)[O-] = inactive
Cc1c(Cl)cccc1Cl = inactive
CCOC(CN1CCN(CC(C)C(=O)c2ccccc2)CC1)c1ccccc1 (stereo not drawn) = -19.9% [at 15.8 µM] (inactive)
CC(=O)OCC(=O)Nc1cc(C#N)cc(NC(=O)COC(C)=O)c1Cl = inactive

For each entry beneath this line, provide reported cytotoxicity increase.
1. CCC(C)C(C)=O (stereo not drawn)
2. COc1cc2c(cc1OC)CN(C(=O)[C@H](C)N[C@@H](CCc1ccccc1)C(=O)O)[C@H](C(=O)O)C2
3. CC(=O)O[Si](C)(OC(C)=O)OC(C)=O
4. O=C1c2ccccc2C(=O)c2cc(Cl)ccc21
5. NCCOCCN
6. CCC(C(=O)OCCN1CCOC(c2ccccc2)C1C)c1ccccc1 (stereo not drawn)
7. CC(S)C(C)S (stereo not drawn)

inactive
inactive
inactive
1.15% [at 6.97 µM] (inactive)
inactive
inactive
inactive

---

TEST METHOD NOTES: qHTS assay to identify small molecule antagonists of the retinoid acid receptor (RAR) signaling pathway - cell viability counter screen (AID 1159551); also: % is scaled to controls: 0 for no effect and ±100 for the full control effect; nearly all actives have a fitted effect of over 35% in size
CONDITION DETAILS: C3RL4 cells viability, ATP luminescence (CellTiter-Glo), 6 h; series mostly up to 92.4 µM
Results filed as inconclusive are left out. The source made the active and inactive calls. The call rests on the fitted dose curve; in most records, active means well fitted cell-killing curve with a large enough effect in the repeat runs; inconclusive means weak or mixed curves, or effect the other way; inactive means flat fitted curve, though single readings scatter.
ENDPOINT: activity change, negative = cytotoxicity

For orientation, consider the following solved cases.
Cc1cccc(Cl)c1 = inactive
Cc1ncc([N+](=O)[O-])n1CC(C)O (configuration not stated) = inactive
OCC(O)CN1CCN(c2ccccc2)CC1 (configuration not stated) = inactive
CCCCOCCOC(=O)COc1ccc(Cl)cc1Cl = inactive
CCOc1cccc(N)c1 = inactive
O=S(=O)(O)c1ccc2c(N=Nc3ccc(S(=O)(=O)O)c4ccccc34)c(O)c(S(=O)(=O)O)cc2c1 = -2.67% [at 8.39 µM] (inactive)

Now for a further compound.
Given item N[C@@H](CSCCCO)C(=O)O , the value recorded as its activity change, negative = cytotoxicity is 5.07% [at 19 µM] (inactive)

---

SYSTEM TESTED: Thyrotropin receptor (Homo sapiens)
TEST METHOD NOTES: qHTS assay to identify small molecule antagonists of the thyroid stimulating hormone receptor (TSHR) signaling pathway (AID 1259385); also: % is scaled to controls: 0 for no effect and ±100 for the full control effect; nearly all actives have a fitted effect of over 20% in size
CONDITION DETAILS: TSHR-HEK293 cAMP HTRF, TSH-stimulated antagonist mode; series mostly up to 92.4 µM
Inconclusive results are not listed. The source made the active and inactive calls. Calls follow the shape of the full dose curve. Positions of bridges follow the written chain, without caps; N, C: chain ends. Non-standard residues stand in square brackets, D forms with d. Residues, ends and D or L forms follow the SMILES beside them. hArg = N=C(N)NCCCC[C@H](N)C(=O)O; Mpa = O=C(O)CCS
ENDPOINT: activity change, negative = inhibition

CC(C)OC(=O)CCC(=O)OC(C)C = inactive
C[C@H]1[C@@H](c2ccccc2)NC(=O)N1C = inactive
CCCCCCC1(C)CCC(=O)O1 (configuration not stated) = inactive
Cc1c(Cl)cccc1Cl = inactive
CN(C)CCN(C)CCO = inactive

For each entry beneath this line, provide reported activity change, negative = inhibition.
1. C#CCN[C@@H]1CCc2ccccc21
2. COc1c2occc2c(OC)c2c(=O)cc(C)oc12
3. NC(=O)[C@@H]1CSSCCC(=O)N[C@@H](CCCCN=C(N)N)C(=O)NCC(=O)N[C@@H](CC(=O)O)C(=O)N[C@@H](Cc2c[nH]c3ccccc23)C(=O)N2CCC[C@H]2C(=O)N1 ([Mpa][hArg]GDWPC-NH2; disulfide 1-7)
4. CCCCOCCOC(=O)COc1ccc(Cl)cc1Cl
5. O=C(O)c1cc2ccccc2nc1C(=O)O
6. C=CCCCC
7. CC(=O)OC1CCCCC1C(C)(C)C (configuration not stated)

1: inactive; 2: inactive; 3: inactive; 4: inactive; 5: inactive; 6: inactive; 7: inactive

---

TEST METHOD NOTES: qHTS assay to identify small molecule antagonists of the retinoid-related orphan receptor gamma (ROR-gamma) signaling pathway - cell viability counter screen (AID 1159520); also: % is scaled to controls: 0 for no effect and ±100 for the full control effect; nearly all actives have a fitted effect of over 50% in size
CONDITION DETAILS: Tet-on RORgamma CHO cells viability, ATP luminescence, 16 h; series mostly up to 92.4 µM
Results filed as inconclusive are left out. The source made the active and inactive calls. Calls follow the shape of the dose curve; as a rule, active = well fitted cell-killing curve with a large enough effect in the repeat runs; inconclusive = weak or mixed curves, or effect the other way; inactive = no such curve, though single readings can be large or run the other way.
ENDPOINT: activity, negative = cytotoxicity

For orientation, consider the following solved cases.
CCO = inactive
COc1cc(OC)nc(O[C@H](C(=O)O)C(OC)(c2ccccc2)c2ccccc2)n1 = inactive
Cn1c(=O)c2[nH]c(Br)nc2n(C)c1=O = inactive
C=CCCCCCCCCC(=O)OCCCC = inactive
CCCCCCCCCCCCCCCCCCOCCO = -10.1% [at 19 µM] (inactive)
C=CCCCCCCCC = inactive

For each entry beneath this line, provide reported activity, negative = cytotoxicity.
1. C[C@]12CCC(=O)C=C1CC[C@H]1[C@@H]3CC[C@](O)(C(=O)CO)[C@@]3(C)C[C@H](O)[C@@]12F
2. COc1cc2c(cc1OC)CN(C(=O)[C@H](C)N[C@@H](CCc1ccccc1)C(=O)O)[C@H](C(=O)O)C2
3. C=CCN1C[C@H](C(=O)N(CCCN(C)C)C(=O)NCC)C[C@@H]2c3cccc4[nH]cc(c34)C[C@H]21

1. inactive
2. inactive
3. inactive

For each entry beneath this line, provide reported activity, negative = cytotoxicity.
1. Nc1nc(-c2ccccc2)c(Br)c(=O)[nH]1
2. CC12CCC(C1)C(C)(C)C2O (configuration not stated)
3. CC(C)=CCC[C@@](C)(O)[C@H]1CC=C(C)CC1

1: inactive; 2: inactive; 3: inactive

// data source = PubChem BioAssay (Tox21)
